Assay Method Text: Biodistribution in BALB/c nu/nu mice bearing PC-3 xenografts
Format: in vivo
Measurement Setup: female, BALB/c nu/nu, mouse, total, iv, total radioactivity; Blockade (co-injection of NOTA-PEG2-RM26), 2 h; read-out: Radionuclide quantity, Total
Starred links: 1 amine or outer side, 2 acyl side, 3 side chain; linkers in the order of their positions; H or OH if unused. Non-standard residues stand in square brackets, D forms with d. Residues, ends and D or L forms follow the SMILES beside them. *: point of attachment. NOTA = O=C(O)CN1CCN(CC(=O)O)CCN(CC(=O)*)CC1; Sta = CC(C)C[C@H](N)[C@@H](O)CC(=O)O; X2 = O=C(COc1cccc(CN[*:1])c1)[*:2]; X1 = O=C(Cc1ccccc1CCN[*:1])[*:2]; X3 = O=C(COc1ccccc1CN[*:1])[*:2]
Endpoint Name: tissue uptake dose at 2 h (%ID)
Could you give me the number in %ID? Just the number is fine.

Some solved entries appear below for comparison.
{"Compound": "CC(=O)N[C@@H](CCCCNC(=O)CN1CCN(CC(=O)O)CCN(CC(=O)O)CC1)C(=O)NCCc1ccccc1CC(=O)N[C@H](Cc1ccccc1)C(=O)N[C@@H](CCC(N)=O)C(=O)N[C@@H](Cc1c[nH]c2ccccc12)C(=O)N[C@@H](C)C(=O)N[C@H](C(=O)NCC(=O)N[C@@H](Cc1c[nH]cn1)C(=O)N[C@@H](CC(C)C)[C@@H](O)CC(=O)N[C@@H](CC(C)C)C(N)=O)C(C)C [[^68Ga]Ga-NOTA-oET-RM26, metal not drawn] (Ac-K(NOTA)[X1][dF]QWAVGH[Sta]L-NH2)", "Endpoint Name": "tissue uptake dose at 2 h", "Unit Text": "%ID", "Value Observed": 8.5}
{"Compound": "CC(=O)N[C@@H](CCCCNC(=O)CN1CCN(CC(=O)O)CCN(CC(=O)O)CC1)C(=O)NCc1ccccc1OCC(=O)N[C@H](Cc1ccccc1)C(=O)N[C@@H](CCC(N)=O)C(=O)N[C@@H](Cc1c[nH]c2ccccc12)C(=O)N[C@@H](C)C(=O)N[C@H](C(=O)NCC(=O)N[C@@H](Cc1c[nH]cn1)C(=O)N[C@@H](CC(C)C)[C@@H](O)CC(=O)N[C@@H](CC(C)C)C(N)=O)C(C)C [[^68Ga]Ga-NOTA-oMA-RM26, metal not drawn] (Ac-K(NOTA)[X3][dF]QWAVGH[Sta]L-NH2)", "Endpoint Name": "tissue uptake dose at 2 h", "Unit Text": "%ID", "Value Observed": 15.7}

Now take the following compound into account.
Prompt line: # get_value(readout='tissue uptake dose at 2 h', item= CC(=O)N[C@@H](CCCCNC(=O)CN1CCN(CC(=O)O)CCN(CC(=O)O)CC1)C(=O)NCc1cccc(OCC(=O)N[C@H](Cc2ccccc2)C(=O)N[C@@H](CCC(N)=O)C(=O)N[C@@H](Cc2c[nH]c3ccccc23)C(=O)N[C@@H](C)C(=O)N[C@H](C(=O)NCC(=O)N[C@@H](Cc2c[nH]cn2)C(=O)N[C@@H](CC(C)C)[C@@H](O)CC(=O)N[C@@H](CC(C)C)C(N)=O)C(C)C)c1 [[^68Ga]Ga-NOTA-mMA-RM26, metal not drawn] (Ac-K(NOTA)[X2][dF]QWAVGH[Sta]L-NH2) )
Response line: 12.6
